Recorded values, source paper PMC8160911.

procedureSummary: ABTS free radical scavenging activity
testContext: 10 min in the dark at RT
parameterMeasured: pEC50
Note on pEC50: it is the negative log10 of concentration, concentration in mol/L.

Data request, read-out pEC50, for `COc1cccc(-c2cc(=O)c3c(O)cc(OC)cc3o2)c1`
4.02

Data request, read-out pEC50, for `COc1cc(O)c2c(=O)cc(-c3ccc(O)c(O)c3)oc2c1`
5.26

Data request, read-out pEC50, for OC[C@H]1O[C@@H](Oc2ccc(O)cc2)[C@H](O)[C@@H](O)[C@@H]1O [Arbutin, arbutin, reference compound]
4.90

Data request, read-out pEC50, for `COc1ccc2c(=O)cc(-c3ccc(O)c(OC)c3)oc2c1`
4.66

Data request, read-out pEC50, for `COc1cc(O)c2c(=O)cc(-c3ccc(O)cc3)oc2c1`
4.25

Data request, read-out pEC50, for `COc1cc(OC)c2c(=O)cc(-c3ccc(O)c(OC)c3)oc2c1`
4.62

Data request, read-out pEC50, for COc1cc(O)c2c(=O)cc(-c3ccc(O)c(OC)c3)oc2c1 [Compound V1, Velutin]
4.64

Data request, read-out pEC50, for `COc1cc(O)c2c(=O)cc(-c3ccc(OC)c(OC)c3)oc2c1`
4.00

Data request, read-out pEC50, for `COc1cc(-c2cc(=O)c3c(O)cc(O)cc3o2)ccc1O`
4.66

Data request, read-out pEC50, for `COc1cc(-c2cc(=O)c3c(O)cccc3o2)ccc1O`
4.63

Data request, read-out pEC50, for `O=c1cc(-c2ccc(O)c(O)c2)oc2cc(O)cc(O)c12`
5.21

---

targetOrSystem: mushroom tyrosinase (Agaricus bisporus)
Construct: purchased Sigma-Aldrich
Sequence (C7FF04 1-392 limits assumed): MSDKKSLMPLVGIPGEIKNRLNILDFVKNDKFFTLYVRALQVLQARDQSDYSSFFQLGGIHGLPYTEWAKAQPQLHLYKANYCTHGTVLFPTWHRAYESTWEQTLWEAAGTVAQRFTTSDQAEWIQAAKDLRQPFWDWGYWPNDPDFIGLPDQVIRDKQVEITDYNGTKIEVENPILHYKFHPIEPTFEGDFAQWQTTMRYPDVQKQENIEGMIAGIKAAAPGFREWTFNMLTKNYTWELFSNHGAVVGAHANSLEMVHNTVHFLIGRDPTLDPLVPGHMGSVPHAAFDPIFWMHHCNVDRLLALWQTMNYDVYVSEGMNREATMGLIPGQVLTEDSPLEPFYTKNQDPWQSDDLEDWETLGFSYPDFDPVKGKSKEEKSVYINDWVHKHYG
procedureSummary: In vitro mushroom tyrosinase inhibition (dopachrome formation from L-tyrosine)
Type: biochemical
testContext: 50 U/mL mushroom tyrosinase, L-tyrosine substrate; read-out: IC50 in Mushroom Tyrosinase Activity
Would you mind telling me the reported IC50 of each entry?
Quick note: number first, unit second.

Short answer please: IC50, mushroom tyrosinase (Agaricus bisporus), entry COc1cc(O)c2c(=O)cc(-c3ccc(O)c(OC)c3)oc2c1 [Compound V1, Velutin]
910 µM

Short answer please: IC50, mushroom tyrosinase (Agaricus bisporus), entry O=c1cc(-c2ccc(O)c(O)c2)oc2cc(O)cc(O)c12 [Compound V11, luteolin]
36.7 µM

Short answer please: IC50, mushroom tyrosinase (Agaricus bisporus), entry COc1cc(O)c2c(=O)cc(-c3ccc(OC)c(OC)c3)oc2c1 [Compound V9]
715 µM

Short answer please: IC50, mushroom tyrosinase (Agaricus bisporus), entry COc1cc(O)c2c(=O)cc(-c3ccc(O)c(O)c3)oc2c1 [Compound V8]
202 µM

---

targetOrSystem: mushroom tyrosinase (Agaricus bisporus)
Construct: purchased Sigma-Aldrich
procedureSummary: In vitro mushroom tyrosinase inhibition (dopachrome formation from L-tyrosine)
Type: biochemical
parameterMeasured: pIC50
Note on pIC50: it is the negative log10 of concentration, concentration in mol/L.

Data request, read-out pIC50, for `COc1cc(O)c2c(=O)cc(-c3ccc(O)cc3)oc2c1`
3.69
